Value source: PubChem BioAssay

Provide the reported viability of each item.
METHOD: reversal of MRP1-mediated doxorubicin resistance, pilot screen, H69AR cells, doxorubicin co-treatment (AID 601)
ASSAY SETUP: H69AR cells + 2 uM doxorubicin, CellTiter-Glo, 72 h; measured here: viability with 2 uM doxorubicin; at 10 µM; stronger effect = lower value
Just the number in %, nothing appended.

Look up viability for this molecule: Nn1c(SCC(=O)Nc2ccccc2)nnc1-c1cccnc1
85.8

# viability lookup, item COc1ccc(-c2nn3c(-c4cccc(C)c4)nnc3s2)cc1OC
79.2

What measured viability goes with CNCCC=C1c2ccccc2CCc2ccccc21 ?
75.5

Value lookup for viability; key = CC(=O)O[C@]1(C(C)=O)CC[C@H]2[C@@H]3C[C@H](C)C4=CC(=O)CC[C@]4(C)[C@H]3CC[C@@]21C
6.83

What value of viability has been recorded for this entry: CC1(C)NC(=O)N(CCCOc2ccc(Br)cc2Cl)C1=O
74.3

Requested read-out: viability. Entry: CCOC(=O)Nc1ccc2c(c1)N(C(=O)CCN1CCOCC1)c1ccccc1S2
76

I'd like to know its viability. The molecule in question is CCCc1nc2ccccc2c(=O)n1NC(=O)c1c(O)c2cccc3c2n(c1=O)CCC3
72.1

Bench note: what viability did CCSC(SCC)[C@H](O)[C@@H](O)[C@H](O)[C@H](O)CO show?
94.8

What value of viability has been recorded for this entry: O=C1c2ccccc2S(=O)(=O)N1Cc1nnc(-c2ccccc2Br)o1
78

What does the record list as viability for CCOc1ccc(N2CC(C(=O)NCCc3ccc(OC)c(OC)c3)CC2=O)cc1 (stereo unspecified) ?
91.4

State the recorded viability for this entry: O=C(c1ccccc1)N1CCN(Cc2ccccc2Br)CC1
89.4

What value of viability has been reported for the following molecule? Cn1c(-c2ccccc2)cnc1SCc1nc2ccccc2c(=O)[nH]1
82.5

Name the reported viability value associated with the molecule COc1nc(-c2ccc(Cl)cc2)ccc1-c1noc(-c2ccncc2)n1
80.4

Which value of viability has been reported for O=C(C1=C(O)C(=O)N(c2ncccn2)C1c1cccc(Cl)c1)c1ccco1 (stereo unspecified) in the records?
92.4

Requested field: viability. Item: C=C(C)C1Cc2c(C)nn(-c3nc(C)cc(C)n3)c2C1 (stereo unspecified)
73.7

Fill in: viability of COc1ccc(-c2noc(CCC(=O)NCCCN3CCC(Cc4ccccc4)CC3)n2)cc1 is ___
64.4

Quick check: viability of O=S(=O)(Nc1cccnc1)c1ccc2c(c1)OCCO2 ?
91.9

Fill in the blank: the reported viability of O=C(Cn1[nH]c(=O)c2ccccc2c1=O)OCC(=O)N1CCCc2ccccc21 is ____.
88.7

For O=C1CCc2cc(OCCCCc3nnnn3C3CCCCC3)ccc2N1 , what is its reported viability?
88.2

Name the reported viability value associated with the molecule CCN(CC(=O)Nc1ccc2c(c1)OCCO2)Cc1cc(=O)oc2cc(C)c(C)cc12
68

Given CCCS(=O)(=O)N1CCCC(C(=O)NC2CCCC(C)C2C)C1 (stereo unspecified) , state its recorded viability.
85.8
